As shown below, each of these molecules has a reported cell viability value.
Test system: MOLM14
Assay: cell viability relative to vehicle control; higher = less cytotoxic;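 also: after 48 h exposure read by CellTiter-Glo luminescence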
Conditions: 10 µM; SRSF2 genotype: SRSF2 wt/wt
Answer shape: numeric part, then the unit.

The examples below pair each entry with its known result.
CC(C)(C)c1nc(-c2ccc(NC(=O)Nc3cccc(C(F)(F)F)c3)c3ccccc23)c2c(N)nccn12
3.37%
COc1ccc2[nH]c(=O)oc2c1
98.2%
O.O=C([O-])c1ncccc1O.O=C([O-])c1ncccc1[O-].[H+].[O]=[V][OH] [VO-Ohpic trihydrate]
110%

cell viability recorded for this molecule, CC(C)C[C@@H]1NC(=O)[C@@H](C(C)C)NC(=O)[C@@H]2CCCN2C(=O)[C@@H](CC(=O)O)NC(=O)[C@@H](Cc2c[nH]c3ccccc23)NC1=O , is 101%

cell viability recorded for this molecule, O=C(O)C=C(CC(=O)O)C(=O)O [cis-Aconitic acid] , is 103%

cell viability recorded for this molecule, Cc1cc(NC(=O)c2cccc(NC(=O)/C=C/CN(C)C)c2)ccc1Nc1nccc(-c2cccnc2)n1 , is 6.17%

----------
Tested on: MARIMO
Assay: cell viability relative to vehicle control; higher = less cytotoxic
Settings: 10 µM; SRSF2 genotype: SRSF2 wt/wt
As shown below, each of these compounds has a reported cell viability value.
Answer format: numeric, % implied, no suffix.

The examples below pair each entry with its known result.
O=C(NC1CC1)c1cc(-c2cccs2)on1 [Isoxazole 9 (ISX-9)]
63
NC(=O)Nc1cc(-c2cccc(F)c2)sc1C(=O)N[C@H]1CCCNC1
13.4
c1ccc(-c2ccc(C(c3ccccc3)n3ccnc3)cc2)cc1 (configuration not stated) [Bifonazole]
87.7
O=C(O)Cc1ccccc1Nc1c(Cl)cccc1Cl [Diclofenac Sodium]
110
CC(=O)N1c2ccc(-c3ccc(C(=O)O)cc3)cc2[C@H](Nc2ccc(Cl)cc2)C[C@@H]1C
28.7

cell viability recorded for this compound, COc1cc(-c2oc3cc(O)cc(O)c3c(=O)c2O[C@@H]2O[C@H](CO[C@@H]3O[C@@H](C)[C@H](O)[C@@H](O)[C@H]3O)[C@@H](O)[C@H](O)[C@H]2O)ccc1O [Narcissoside] , is 103

cell viability recorded for this compound, COc1ccc(CCO[C@@H]2O[C@H](CO[C@@H]3OC[C@H](O)[C@H](O)[C@H]3O)[C@@H](OC(=O)/C=C/c3ccc(O)c(OC)c3)[C@H](O[C@@H]3O[C@@H](C)[C@@H](O)[C@@H](O)[C@H]3O)[C@H]2O)cc1O [Angoroside C] , is 96.2

----------
As shown below, each of these molecules has a reported cell viability value.
Tested on: MARIMO
Assay: cell viability relative to vehicle control; higher = less cytotoxic
Settings: 10 µM; SRSF2 genotype: SRSF2 wt/wt
Counter-ions that a name gives are not always drawn.
Answer format: numeric, % implied, no suffix.

The examples below pair each entry with its known result.
O=C1CCc2ccc(OCCCCN3CCN(c4cccc(Cl)c4Cl)CC3)cc2N1 [Aripiprazole (Abilify)]
80.1
NC(=O)NO [Hydroxyurea (Cytodrox)]
105
CCOc1ccc(Cc2cc([C@@H]3O[C@H](CO)[C@@H](O)[C@H](O)[C@H]3O)ccc2Cl)cc1 [Dapagliflozin]
96.9
CC(C)c1cnn2c(NCc3ccccc3)cc(NCCCCCCN)nc12
87.8
CCS(=O)(=O)CCn1c([N+](=O)[O-])cnc1C [Tinidazole]
97.2
CCOC(=O)c1c2c3c(cccc3[nH]c1=O)C(=O)c1ccccc1-2
96.1

cell viability recorded for this molecule, CC(C)n1c(=O)n(C)c2cnc3cc(F)c(-c4ccc(OCCCN5CCCCC5)nc4)cc3c21 , is 61

cell viability recorded for this molecule, NCc1c[nH]c(=S)n1[C@@H]1CCc2c(F)cc(F)cc2C1 [(R)-Nepicastat HCl] , is 110

cell viability recorded for this molecule, COc1ccnc(C[S+]([O-])c2nc3cc(OC(F)F)ccc3[nH]2)c1OC (stereo not given) [Pantoprazole (Protonix)] , is 103

cell viability recorded for this molecule, COc1nc(C)cnc1NS(=O)(=O)c1cccnc1-c1ccc(-c2nnco2)cc1 [Zibotentan (ZD4054)] , is 97.6

----------
Test system: K562
Test: cell viability relative to vehicle control; higher = less cytotoxic
Conditions: 10 µM; SRSF2 genotype: SRSF2 wt/wt
readoutType: cell viability (%)
Answer format: numeric, % implied, no suffix.

O=C(Nc1c[nH]nc1-c1nc2ccc(CN3CCOCC3)cc2[nH]1)NC1CC1
15.8
CC(=O)O/N=C1/C(c2c(O)[nH]c3cc(Br)ccc23)=Nc2ccccc21
25.4
N#Cc1ccc2ncnc(NCCc3ccccc3)c2c1
92.4
Cc1cn(-c2cc(NC(=O)c3ccc(C)c(Nc4nccc(-c5cnccn5)n4)c3)cc(C(F)(F)F)c2)cn1
22.1
CCCN(CCc1cccs1)[C@H]1CCc2c(O)cccc2C1
104

cell viability recorded for this compound, O=C1Nc2ccc(I)cc2C1=Cc1cc(Br)c(O)c(Br)c1 , is 90.1

----------
Tested on: OCI-AML2
Assay: cell viability relative to vehicle control; higher = less cytotoxic
Conditions: 10 µM; SRSF2 genotype: wt/wt
Counter-ions that a name gives are not always drawn.
readoutType: cell viability
Answer shape: numeric part, then the unit.

COc1ccccc1N1CCN(CC(O)COc2cccc3ccccc23)CC1 (stereo not drawn) [Naftopidil Dihydrochloride]
74.5%
O=C(O)CCn1c2c(c3ccccc31)C[C@H](NS(=O)(=O)c1ccc(F)cc1)CC2
103%
Nc1nc(N)c2nc(-c3ccccc3)c(N)nc2n1
101%
Cc1ccc(Nc2nccc(N(C)c3ccc4c(C)n(C)nc4c3)n2)cc1S(N)(=O)=O [Pazopanib HCl]
33.9%
Cn1cnc(=N)c2[nH]cnc21
97.6%

cell viability recorded for this compound, CCn1cc(C(=O)O)c(=O)c2c(N)c(F)c(NC3CCCCC3)cc21 , is 136%

cell viability recorded for this compound, C=C[C@]1(C)C[C@@H](OC(=O)CSCCN(CC)CC)[C@]2(C)[C@H](C)CC[C@]3(CCC(=O)[C@H]32)[C@@H](C)[C@@H]1O , is 79.5%

cell viability recorded for this compound, O=c1c(O)c(-c2ccc(O)cc2)oc2cc(O)cc(O)c12 , is 67.5%

cell viability recorded for this compound, C=CCn1c(=O)c2cnc(Nc3ccc(N4CCN(C)CC4)cc3)nc2n1-c1cccc(C(C)(C)O)n1 , is 8.01%

cell viability recorded for this compound, COc1cc2oc(-c3ccccc3)cc(=O)c2c(OC)c1OC , is 87.3%

----------
As shown below, each of these compounds has a reported cell viability value.
Tested on: OCI-AML2
Test: cell viability relative to vehicle control; higher = less cytotoxic
Details: 10 µM; SRSF2 genotype: wt/wt
Answer format: numeric, % implied, no suffix.

The examples below pair each entry with its known result.
COc1ccc(COc2ccc(Cc3cnc(N)nc3N)cc2OC)cc1
70.3
O=C(O)CCCNC(=O)c1cccnc1
118
CC(=O)N[C@@H](CS)C(=O)O
98

cell viability recorded for this compound, O=C1CCc2ccccc2O1 [Dihydrocoumarin] , is 100

cell viability recorded for this compound, C=C1/C(=C\C=C2/CCC[C@]3(C)[C@@H]([C@H](C)CCCC(C)C)CC[C@@H]23)C[C@@H](O)C[C@@H]1O , is 110

cell viability recorded for this compound, O=C(O)c1ccc(NC(=O)[C@H](Cc2ccc(O)cc2)NC(=O)c2ccccc2)cc1 [bentiromide] , is 96.2

----------
Test system: K562
Assay: cell viability relative to vehicle control; higher = less cytotoxic
Conditions: 10 µM; SRSF2 genotype: SRSF2 wt/wt
Where a name gives a salt, the structure may show the parent alone.
As shown below, each of these compounds has a reported cell viability value.
Answer format: numeric, % implied, no suffix.

The examples below pair each entry with its known result.
COc1cccc2c1C(=O)c1c(O)c3c(c(O)c1C2=O)C[C@@](O)(C(=O)CO)C[C@@H]3O[C@H]1C[C@H](N)[C@@H](O)[C@H](C)O1 [Epirubicin Hydrochloride]
7.29
COc1cc(C=O)c([N+](=O)[O-])cc1OC
110
O=C(c1ccc(F)cc1)C1CCN(CCn2c(=O)[nH]c3ccccc3c2=O)CC1
103
C[C@@H]1O[C@@H](OC[C@H]2O[C@@H](Oc3cc(O)c4c(=O)cc(-c5ccc(O)cc5)oc4c3)[C@H](O[C@@H]3O[C@@H](C)[C@H](O)[C@@H](O)[C@H]3O)[C@@H](O)[C@@H]2O)[C@H](O)[C@H](O)[C@H]1O
106
COc1cc(CO)ccc1O
88.8

cell viability recorded for this compound, COc1cc2ncnc(Nc3ccc(Cl)cc3F)c2cc1OC , is 82.8

cell viability recorded for this compound, CCCc1cc(=O)[nH]c(=S)[nH]1 , is 94

cell viability recorded for this compound, CN1CCN(C(=O)c2cc3cc(Cl)ccc3[nH]2)CC1 , is 98.6

cell viability recorded for this compound, COCC[n+]1c2c(n(Cc3cnccn3)c1C)C(=O)c1ccccc1C2=O [YM155 (Sepantronium Bromide)] , is 0.47

cell viability recorded for this compound, CCCC(=O)NCCc1csc(-c2ccc(Cl)cc2)n1 [Azoramide] , is 98.4

Sourced from the supplement of paper PMC10981050
